target: SrcKD (Homo sapiens (Human)); assay: Tyrosine kinase IC50, SrcKD; format: biochemical; settings: Table 9
Sequence (P12931 270-523): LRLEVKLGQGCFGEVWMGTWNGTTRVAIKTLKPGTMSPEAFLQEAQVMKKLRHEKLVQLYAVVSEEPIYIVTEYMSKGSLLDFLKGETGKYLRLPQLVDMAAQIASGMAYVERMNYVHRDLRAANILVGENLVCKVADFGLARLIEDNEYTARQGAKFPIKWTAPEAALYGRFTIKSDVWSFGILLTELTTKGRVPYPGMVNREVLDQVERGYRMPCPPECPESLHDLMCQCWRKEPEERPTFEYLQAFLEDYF
QUANTITY NAME: IC50

COMPOUND: COc1ccc2cc(-c3nn(CC4CCNCC4)c4ncnc(N)c34)ccc2c1 [Compound 28]
QUANTITY NAME: IC50
RESULT VALUE: > 20 µM
--
COMPOUND: CCOc1ccc2cc(-c3nn(CC4CCNCC4)c4ncnc(N)c34)ccc2c1 [Compound 29]
QUANTITY NAME: IC50
RESULT VALUE: > 20 µM
--
COMPOUND: Nc1ncnc2c1c(Cc1cccc3ccccc13)nn2CC1CCNCC1 [Compound 5h]
QUANTITY NAME: IC50
RESULT VALUE: > 20 µM
--
COMPOUND: Nc1nc2ccc(C(=O)c3ccccc3)cc2[nH]1 [Compound 92]
QUANTITY NAME: IC50
RESULT VALUE: > 10 µM
--
COMPOUND: Nc1ncnc2c1cnn2CC1CCNCC1 [Compound 99]
QUANTITY NAME: IC50
RESULT VALUE: > 10 µM
--
COMPOUND: CCOc1ccc2cc(-c3nn(CC4CCN(C)CC4)c4ncnc(N)c34)ccc2c1 [Compound 150]
QUANTITY NAME: IC50
RESULT VALUE: > 10 µM
--
COMPOUND: Nc1ncnc2c1c(-c1cnc3ccccc3c1)nn2CC1CCNCC1 [Compound 30]
QUANTITY NAME: IC50
RESULT VALUE: > 20 µM
--
COMPOUND: CC(C)(C)n1ncc2c(N)ncnc21 [Compound 123]
QUANTITY NAME: IC50
RESULT VALUE: > 10 µM
